Source listed as patent US6737383B1.

Test system: cocklebur
test.method.notes: Test B pre/postemergence cocklebur
Assay type: in vivo, Xanthium strumarium
assay.context: Preemergence, Rate 250 g/ha; scale of 0 to 10 where 0 is no effect and 10 is complete control
Field: Cocklebur plant response rating. Provide a value for each of the compounds that follow.
Answers are plain numbers.

> print(dat)
                                   compound  endpoint.result
1  C=CCn1c(=O)on(C(=O)N(c2ccc(Cl)cc2)C(C)C2CC2)c1=O (stereo not drawn) [Compound 325]                0
2  CCCCCCn1c(=O)on(C(=O)N(c2ccc(F)cc2)C(C)C)c1=O [Compound 389]                0

Could you now look at the following compound, please?
Fill in: Cocklebur plant response rating of Cc1nsc(Cl)c1Cn1c(=O)on(C(=O)N(c2ccccc2)C(C)C)c1=O [Compound 374] is ___
0

----------
Tested on: morningglory
test.method.notes: Test B pre/postemergence morningglory
Assay type: in vivo, Ipomoea hederacea
assay.context: Preemergence, Rate 500 g/ha; scale of 0 to 10 where 0 is no effect and 10 is complete control
measured.attribute: Plant response rating, Morningglory
Answers are plain numbers.

Solved cases (4 shown):
> print(dat)
                                   molecule  endpoint.result
1  CSc1ccc(N(C(=O)n2oc(=O)n(-c3ccccc3C)c2=O)C(C)C)cc1                0
2  CC(C)N(C(=O)n1oc(=O)n(CSC#N)c1=O)c1ccc(F)cc1                0
3  C#CC(C)n1c(=O)on(C(=O)N(c2ccc(Cl)cc2)C(C)C)c1=O (racemic)                0
4  CC(C)N(C(=O)n1oc(=O)n(C(CF)CF)c1=O)c1ccc(F)cc1F                6

Could you now look at the following molecule, please?
Fill in: Plant response rating, Morningglory of "CC(C)N(C(=O)n1oc(=O)n(CC[N+](=O)[O-])c1=O)c1ccc(F)cc1F" is ___
0

----------
System: morningglory
test.method.notes: Test B pre/postemergence morningglory
Assay type: in vivo, Ipomoea hederacea
assay.context: Rate 62 g/ha, Postemergence; scale 0 to 10 (0 no effect, 10 complete control)
measured.attribute: Morningglory plant response rating
Give bare numbers.

Solved cases (7 shown):
> print(dat)
                                   molecule  endpoint.result
1  Cc1c(-n2c(=O)on(C(=O)N(c3ccc(Cl)cc3)C(C)C)c2=O)ccc2ccccc12                0
2  CC(C)N(C(=O)n1oc(=O)n(CC(=O)C2CC2)c1=O)c1ccccc1                2
3  Cc1ccc(N(C(=O)n2oc(=O)n(-c3ccc4ccccc4c3)c2=O)C(C)C)cc1                0
4  Cc1ccccc1-n1c(=O)on(C(=O)N(c2ccc(OC(F)(F)F)cc2)C(C)C)c1=O                0
5  CC(C)N(C(=O)n1oc(=O)n(CO)c1=O)c1ccc(F)cc1                0
6  CC(C)N(C(=O)n1oc(=O)n(CC(=O)N(C)C)c1=O)c1ccc(Cl)cc1                6
7  CC(C)N(C(=O)n1oc(=O)n(-c2ccc3ccccc3c2)c1=O)c1ccc(Cl)cc1                0

Could you now look at the following molecule, please?
Fill in: Morningglory plant response rating of CC(C)N(C(=O)n1oc(=O)n(C(C)C(=O)N(C)C)c1=O)c1ccccc1 (centres unmarked) is ___
7

----------
Field: Crabgrass plant response rating. Provide a value for each of the molecules that follow.
Tested on: crabgrass
test.method.notes: Test B pre/postemergence crabgrass
Type: in vivo, Digitaria sanguinalis
assay.context: Preemergence, Rate 500 g/ha; scale 0 to 10 (0 no effect, 10 complete control)
Experimental: […] At the same time, these crop and weed species were also treated with postemergence applications of test chemicals formulated in the same manner. […] Treated plants and controls were maintained in a greenhouse for twelve to sixteen days, after which all species were compared to controls and visually evaluated. […]

Solved cases (2 shown):
> print(dat)
                                   molecule  endpoint.result
1  Cc1ccccc1-n1c(=O)on(C(=O)N(c2ccc(Cl)cc2Cl)C(C)C)c1=O [Compound 185]                9
2  COc1nc(OC)nc(N(C(=O)n2oc(=O)n(-c3ccccc3C)c2=O)C(C)C)n1 [Compound 181]                0

// for each molecule in input: emit Crabgrass plant response rating
1. CC(C)c1noc(C(C)C)c1-n1c(=O)on(C(=O)N(c2ccc(F)cc2)C(C)C)c1=O [Compound 135]
2. CC(C)N(C(=O)n1oc(=O)n(C(C)(C)C)c1=O)c1ccc(Cl)cc1 [Compound 118]
3. CC(C)N(C(=O)n1oc(=O)n(Cc2ccccc2Cl)c1=O)c1ccc(F)cc1 [Compound 140]
4. CC(C)N(C(=O)n1oc(=O)n(C2CCCCC2)c1=O)c1ccc(F)cc1F [Compound 115]
5. Cc1nc(C)c(Cn2c(=O)on(C(=O)N(c3ccc(F)cc3)C(C)C)c2=O)s1 [Compound 192]

4
10
10
9
9

----------
Field: Plant response rating, Crabgrass. Provide a value for each of the compounds that follow.
Test system: crabgrass
test.method.notes: Test B pre/postemergence crabgrass
Format: in vivo, Digitaria sanguinalis
assay.context: Postemergence, Rate 500 g/ha; scale of 0 to 10 where 0 is no effect and 10 is complete control
One number for each entry.

// for each compound in input: emit Plant response rating, Crabgrass
1. COCCn1c(=O)on(C(=O)N(c2ccc(F)cc2F)C(C)C)c1=O [Compound 628]
2. CC(C)N(C(=O)n1oc(=O)n(CCCC(F)(F)F)c1=O)c1ccccc1 [Compound 585]
3. CC(C)N(C(=O)n1oc(=O)n(CCCF)c1=O)c1ccccc1 [Compound 559]
4. CCC=CCn1c(=O)on(C(=O)N(c2ccccc2)C(C)C)c1=O [Compound 582]

[9, 9, 9, 3]

----------
Test system: pigweed
test.method.notes: Test B pre/postemergence pigweed
Type: in vivo, Amaranthus retroflexus
assay.context: Postemergence, Rate 125 g/ha; scale 0 to 10, 0 is no effect, 10 is complete control
measured.attribute: Plant response rating, Redroot pigweed
Answers are plain numbers.

Solved cases (3 shown):
> print(dat)
                                   compound                      measured.attribute  endpoint.result
1  CCOC(=O)C(C)N(C(=O)n1oc(=O)n(-c2c(C)cccc2OC)c1=O)c1ccc(F)cc1 (stereo not shown)  Plant response rating, Redroot pigweed                0
2  CC(C)N(C(=O)n1oc(=O)n(CCC#N)c1=O)c1ccc(F)cc1  Plant response rating, Redroot pigweed                0
3  CC(C)N(C(=O)n1oc(=O)n(-c2ccc3ccccc3c2)c1=O)c1ccc(Cl)cc1  Plant response rating, Redroot pigweed                0

Could you now look at the following compound, please?
Fill in: Plant response rating, Redroot pigweed of "Cc1nnsc1Cn1c(=O)on(C(=O)N(c2ccc(F)cc2)C(C)C)c1=O" is ___
0

----------
Tested on: corn
test.method.notes: Test B pre/postemergence corn
Assay type: in vivo, Zea mays
assay.context: Preemergence, Rate 250 g/ha; scale 0 (no effect) to 10 (complete control)
measured.attribute: Corn plant response rating
Answers are plain numbers.

Solved cases (3 shown):
> print(dat)
                                   compound  endpoint.result
1  COCC(OC)n1c(=O)on(C(=O)N(c2ccccc2)C(C)C)c1=O (stereo not shown) [Compound 734]                9
2  CC(C)N(C(=O)n1oc(=O)n(CC(F)F)c1=O)c1ccc(F)cc1 [Compound 710]                0
3  CC(C)N(C(=O)n1oc(=O)n(CCCCl)c1=O)c1ccc(Cl)cc1 [Compound 749]                0

Could you now look at the following compound, please?
Fill in: Corn plant response rating of CC(C)N(C(=O)n1oc(=O)n(CCN(C)C(=O)c2ccccc2)c1=O)c1ccc(F)cc1F [Compound 762] is ___
0

----------
System: morningglory
test.method.notes: Test B pre/postemergence morningglory
Assay type: in vivo, Ipomoea hederacea
assay.context: Preemergence, Rate 250 g/ha; scale 0 to 10, 0 is no effect, 10 is complete control
measured.attribute: Morningglory plant response rating
One number for each entry.

Solved cases (4 shown):
> print(dat)
                                   compound  endpoint.result
1  CC(C)N(C(=O)n1oc(=O)n(CCBr)c1=O)c1ccccc1 [Compound 415]                0
2  CC(C)N(C(=O)n1oc(=O)n(C(C)Cl)c1=O)c1ccccc1 (stereo not drawn) [Compound 438]                0
3  Cc1nc(C)c(Cn2c(=O)on(C(=O)N(c3ccc(F)cc3)C(C)C)c2=O)s1 [Compound 192]                0
4  CCCn1c(=O)on(C(=O)N(c2ccc(F)cc2F)C(C)C)c1=O [Compound 130]                3

// for each compound in input: emit Morningglory plant response rating
1. CC(C)N(C(=O)n1oc(=O)n(C(C)C)c1=O)c1ccc(F)cc1 [Compound 131]
2. CC(C)N(C(=O)n1oc(=O)n(CCCl)c1=O)c1ccccc1 [Compound 469]
3. CC(C)N(C(=O)n1oc(=O)n(C(C)C(=O)N(C)C)c1=O)c1ccccc1 (stereo not drawn) [Compound 479]
4. C=CCn1c(=O)on(C(=O)N(c2ccc(F)cc2F)C(C)C)c1=O [Compound 151]

1. 5
2. 0
3. 4
4. 0

Fill in: Morningglory plant response rating of CC(C)N(C(=O)n1oc(=O)n([C@H](C)c2ccccc2)c1=O)c1ccc(F)cc1 [Compound 179] is ___
0
